Test system: LOX IMVI melanoma
experiment.description: NCI-60 one-dose screen, 48 h
measurement.conditions: 10 µM unless noted
This is part of a sample that, as a whole, favours compounds with a hit. Of some 83,000 tested, about 20% had one in any assay. Activity calls are given as the source filed them. How the source made its calls: active means growth percent below 10; inactive means the rest.
Pick one and only one: active, inactive

# count of solved cases: 8
CC1CC(C(C)(C)C)C(=O)C(C(C)(C)C)C1 (centres undefined)    inactive
COc1ccc(-c2nc(SCCC(C)C)nc(N/N=C\c3ccccc3O)c2C#N)cc1    inactive
O=C(N/N=C/c1ccncc1)c1ccc(C(F)(F)F)nc1Nc1cccc(C(F)(F)F)c1    inactive
O=C(Cc1ccc(F)c(F)c1)Nc1cc(C2(C(F)(F)F)CC2)nn1Cc1ccccc1    active
COC(=O)CCC1=C(C)C2=NC1=CC1=NC(=CC3=NC(=Cc4[nH]c(/c(=C(/C)O)c4C)=C2)C(C(C)=O)=C3C)C(C)=C1CCC(=O)OC    inactive
COc1cc2ncn3c(=O)c4c5c(sc4nc3c2cc1OC)CCCC5    inactive
CC(=O)N1N=C(c2ccc(Nc3nc(Nc4ccc(F)cc4)nc(Nc4ccc(F)cc4)n3)cc2)CC1c1cccc([N+](=O)[O-])c1 (centres undefined)    inactive
Cc1ccc(CCC(=O)Nc2ncc(Cc3cc(Cl)ccc3Cl)s2)o1    inactive

input: Could you please tell me the result logged for C=C1C(=O)O[C@H]2[C@H]1CC/C(CNC(=O)/C=C/c1ccc(Cl)cc1Cl)=C\CC[C@@]1(C)O[C@@H]21 in this assay?
output: active
